Origin of measurements: the supplement of paper PMC3334620

Items are presented alongside their recorded PBM E-score.
Molecular target: Gcr1 (UniProt P07261)
Sequence: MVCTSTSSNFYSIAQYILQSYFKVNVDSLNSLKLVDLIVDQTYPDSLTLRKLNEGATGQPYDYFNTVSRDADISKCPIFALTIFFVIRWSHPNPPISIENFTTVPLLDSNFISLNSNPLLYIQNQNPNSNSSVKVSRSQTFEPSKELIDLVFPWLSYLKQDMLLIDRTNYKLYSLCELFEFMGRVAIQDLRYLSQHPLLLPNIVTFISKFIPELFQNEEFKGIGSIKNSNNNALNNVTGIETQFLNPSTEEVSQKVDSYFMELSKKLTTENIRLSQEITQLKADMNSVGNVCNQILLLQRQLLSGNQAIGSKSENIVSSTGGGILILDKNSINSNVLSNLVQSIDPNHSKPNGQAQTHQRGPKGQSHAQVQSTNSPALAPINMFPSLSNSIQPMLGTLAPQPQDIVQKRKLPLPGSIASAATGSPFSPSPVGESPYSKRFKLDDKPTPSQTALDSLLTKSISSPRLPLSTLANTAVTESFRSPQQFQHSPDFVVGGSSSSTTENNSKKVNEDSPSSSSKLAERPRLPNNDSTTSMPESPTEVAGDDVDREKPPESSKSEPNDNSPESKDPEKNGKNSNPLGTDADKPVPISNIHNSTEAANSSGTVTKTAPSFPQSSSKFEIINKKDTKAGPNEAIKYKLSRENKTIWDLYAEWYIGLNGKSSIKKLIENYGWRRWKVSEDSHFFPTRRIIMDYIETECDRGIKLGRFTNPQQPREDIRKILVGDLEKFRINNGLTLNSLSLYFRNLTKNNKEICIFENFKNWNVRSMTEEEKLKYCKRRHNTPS
Assay: PBM E-score (8-mer binding enrichment) (E-score (-0.5 to 0.5)); higher = stronger / more preferred TF binding
Details: protein concentration: 100 nM; construct: GST-full length
Whole data set: some 33,000 sequences, median “E-score (-0.5 to 0.5)” near -0.011, cut for the highest 2% near 0.28. Shown is part of a subset that was picked to be rich in the highest values.
Provide a numeric answer; units are not to be included.

Example cases with answers are listed next.
Construct Sequence: AATAGTGG
PBM E-score: 0.425
--
Construct Sequence: ATTTTAGG
PBM E-score: 0.249
--
Construct Sequence: ATTAGTGC
PBM E-score: -0.00168
--
Construct Sequence: ACGAACCT
PBM E-score: -0.0495
--
Construct Sequence: GATCTCAC
PBM E-score: -0.257
--
Construct Sequence: CGGAACCC
PBM E-score: 0.348

*Q* Endpoint output: PBM E-score of CGGAACCG . Value?
*A* 0.18

*Q* Suppose we examine the sequence TGGAACAA ; what PBM E-score value has been reported?
*A* -0.0703

*Q* // lookup PBM E-score for GGGAACCA
*A* 0.314

*Q* Name the recorded PBM E-score for CGAACCCC .
*A* 0.0243

*Q* Given the sequence AATAGTGC , what is its reported PBM E-score?
*A* -0.175
